Entries annotated with measured Selectivity ratio
species on record: Homo sapiens; assay: Selectivity for human adenosine A2A receptor over human adenosine A1 receptor

| chemicalString | Selectivity ratio |
| --- | --- |
| Cc1cc(C)cc(CC(=O)Nc2cc(-n3nc(C)cc3C)nc(-c3ccccn3)n2)c1 | 186 |

Entry COc1ccc(CC(=O)Nc2cc(-n3nc(C)cc3C)nc(-c3ccccn3)n2)cc1 has what Selectivity ratio? 66

Entry COc1ccc(CC(=O)Nc2cc(-n3nc(C)cc3C)nc(-c3ccc(C)o3)n2)cc1F has what Selectivity ratio? 129

Entry COc1ccc(CC(=O)Nc2cc(-n3nc(C)cc3C)nc(-c3ccc(C)o3)n2)cc1OC has what Selectivity ratio? 180

Entry COc1cc(CC(=O)Nc2cc(-n3nc(C)cc3C)nc(-c3ccc(C)o3)n2)cc(OC)c1 has what Selectivity ratio? 487

Entry Cc1cc(C)n(-c2cc(NC(=O)Cc3ccc(CN(C)C)cc3)nc(-c3ccc(C)o3)n2)n1 has what Selectivity ratio? 80

Entry COc1ccc(CC(=O)Nc2cc(-c3nccs3)nc(-c3ccccn3)n2)cc1 has what Selectivity ratio? 18

Entry Cc1cc(C)n(-c2cc(NC(=O)Cc3cc(F)cc(F)c3)nc(-c3ccc(C)o3)n2)n1 has what Selectivity ratio? 126

Entry COc1ccc(CC(=O)Nc2cc(-n3nc(C)cc3C)nc(-c3ccc(C)o3)n2)cc1C has what Selectivity ratio? 411

Each recorded value in this set is attributed to ChEMBL document CHEMBL1142297.
